Data origin, for the record: ChEMBL document CHEMBL1201862

Catalogue of molecules with associated GI50
# System: SNB-75
# Test Summary: NCI tumour cell line growth inhibition, 48 h
Calls of active or inactive are those of the source. No stated cut-off is given here; in the data, active = GI50 up to about 1.1 µM and inactive = higher.

For SNB-75, provide GI50 of CCOc1ccc(/N=C/C=C(\Cl)c2ccc3ccccc3c2)cc1 please.
14.3 µM (inactive)

And Cc1cc(NS(=O)(=O)c2ccc(NC(=O)c3ccc4nc5ccccc5c(Nc5ccc(S(=O)(=O)Nc6cc(C)on6)cc5)c4c3)cc2)no1 ?
> 50 µM (inactive)

And CCOC(=O)C(Cc1ccc(N(CCCl)CCCl)cc1)NC(=O)CCCN1C(=O)CN=C(c2ccccc2)c2cc(Cl)ccc21 (stereo unspecified) ?
15.8 µM (inactive)

And CCCCCCNC(=O)c1cc(CCc2cc(O)ccc2O)ccc1O ?
4.93 µM (inactive)

And CCOC(=O)C(CCC(N)=O)(CCC(=O)OC)C(=O)OCC ?
> 100 µM (inactive)

And Cc1cc2cc3c(O)nc(O)nc3nc2cc1C ?
27.6 µM (inactive)

And CC1(C)O[C@@H](CCl)C[C@H](C#N)O1 ?
> 100 µM (inactive)

And CC(=O)OCC1OC(O/C=C(\CN=[N+]=[N-])C(C)=O)C(OC(C)=O)C(OC(C)=O)C1OC(C)=O (stereo unspecified) ?
13.5 µM (inactive)

And CCCCCC(/C=N/N)C(O)(C(F)(F)F)C(F)(F)F (stereo unspecified) ?
3.29 µM (inactive)

And Cc1ccccc1NC(=O)C(=O)CC(=O)C1CCOC1=O (stereo unspecified) ?
> 100 µM (inactive)

And COc1ccc(-c2c(N)[n+]([O-])c3cc(C)c(C)cc3[n+]2[O-])cc1OC ?
36.4 µM (inactive)

* * *

# System: HOP-92
# Test Summary: NCI tumour cell line growth inhibition, 48 h
The source made the active and inactive calls. Cut-off read from the data, not from the text of the source: active = GI50 up to about 1.1 µM and inactive = higher.
Catalogue of molecules with associated GI50

Check out these entries, answers already filled in.
Molecule	Recorded Result
C#C[C@]1(O)CCC2C3CCc4cc(Oc5nc(F)nc(-n6c(C)nc7cc8ccccc8cc76)n5)ccc4C3CCC21C (stereo not given in full)	16.3 µM (inactive)
COc1cccc(C(=O)N2CCc3ccccc32)c1OC	53.5 µM (inactive)
Cc1cccc2c(N)c3cccc(C(=O)NCCN4CCOCC4)c3nc12	3.48 µM (inactive)
Clc1ccc(-c2cc(-c3cc4cc(Br)ccc4nc3Cl)on2)cc1	27.9 µM (inactive)
CC(=O)OCC1OC(n2c3c(cc(C#N)c2=S)CCCCC3)C(OC(C)=O)C(OC(C)=O)C1OC(C)=O (stereo not given)	> 100 µM (inactive)

Quick check: GI50 of O=C(/C=C/c1ccccc1)Oc1cccc2cccnc12 ?
17.5 µM (inactive)

And OCCN(/N=C\c1ccc2ccccc2c1)C1=NCCN1 ?
16 µM (inactive)

And CCN(CC)c1ccc(/C=C/C2=NN(c3cccc(S(=O)(=O)O)c3)C3(C2)C(Cl)C(=O)N3c2nc3ccccc3s2)cc1 (stereo not given) ?
6.73 µM (inactive)

And CCOC(=O)C1(Cc2c[nH]c3ccccc23)C(O)CCCN1C(C)=O (stereo not given) ?
> 100 µM (inactive)

And Cc1cnc(Cl)nc1C(C#N)c1nc2ccccc2n1C (stereo not given) ?
> 100 µM (inactive)

* * *

# System: HT-29
# Test Summary: NCI tumour cell line growth inhibition, 48 h
Activity calls are given as the source filed them. No stated cut-off is given here; in the data, active = GI50 up to about 1.1 µM and inactive = higher.
Pick one and only one: YES (active), NO (inactive)

As a guide, the following entries are already answered.
Compound	Class Name
O=C1c2ccccc2-c2ccc(NC(=O)C3CCCCC3C(=O)O)cc21 (centres undefined)	NO
O=C(NCCCC/N=c1/cccccc1NCCCCNC(=O)OCc1ccccc1)OCc1ccccc1	NO
C/C(=N\Nc1nc2ccccc2n1C)c1cc2ccccc2cn1	YES
Cc1cccc2c(N)c3cccc(C(=O)NCCN4CCOCC4)c3nc12	YES

Returns: the outcome recorded for Fc1ccc(NCn2nc(COc3ccccc3Cl)n(/N=C/c3ccc(-c4ccc(Cl)cc4Cl)o3)c2=S)cc1Cl in this assay.
NO

And CCOC(=O)C(CCC(N)=O)(CCC(=O)OC)C(=O)OCC ?
NO

And CC(C)(C)N/N=C(\C(=O)Nc1cccc(Cl)c1)C1C(=O)Nc2ccccc2[S+]1[O-] (centres undefined) ?
NO

And O=C(O)CC1NC(/C(=C/c2ccccc2O)NC(=O)c2ccccc2)OC1=O (centres undefined) ?
NO

And CC(=O)O[C@H]1/C(=C/c2ccc(N(C)C)cc2)C[C@H]2[C@@H]3CC=C4C[C@@H](N5CCCC5)CC[C@]4(C)[C@H]3CC[C@]12C ?
NO
